Molecular target: Epidermal growth factor receptor (Homo sapiens) (UniProt P00533)
Sequence (P00533 whole entry, looked up): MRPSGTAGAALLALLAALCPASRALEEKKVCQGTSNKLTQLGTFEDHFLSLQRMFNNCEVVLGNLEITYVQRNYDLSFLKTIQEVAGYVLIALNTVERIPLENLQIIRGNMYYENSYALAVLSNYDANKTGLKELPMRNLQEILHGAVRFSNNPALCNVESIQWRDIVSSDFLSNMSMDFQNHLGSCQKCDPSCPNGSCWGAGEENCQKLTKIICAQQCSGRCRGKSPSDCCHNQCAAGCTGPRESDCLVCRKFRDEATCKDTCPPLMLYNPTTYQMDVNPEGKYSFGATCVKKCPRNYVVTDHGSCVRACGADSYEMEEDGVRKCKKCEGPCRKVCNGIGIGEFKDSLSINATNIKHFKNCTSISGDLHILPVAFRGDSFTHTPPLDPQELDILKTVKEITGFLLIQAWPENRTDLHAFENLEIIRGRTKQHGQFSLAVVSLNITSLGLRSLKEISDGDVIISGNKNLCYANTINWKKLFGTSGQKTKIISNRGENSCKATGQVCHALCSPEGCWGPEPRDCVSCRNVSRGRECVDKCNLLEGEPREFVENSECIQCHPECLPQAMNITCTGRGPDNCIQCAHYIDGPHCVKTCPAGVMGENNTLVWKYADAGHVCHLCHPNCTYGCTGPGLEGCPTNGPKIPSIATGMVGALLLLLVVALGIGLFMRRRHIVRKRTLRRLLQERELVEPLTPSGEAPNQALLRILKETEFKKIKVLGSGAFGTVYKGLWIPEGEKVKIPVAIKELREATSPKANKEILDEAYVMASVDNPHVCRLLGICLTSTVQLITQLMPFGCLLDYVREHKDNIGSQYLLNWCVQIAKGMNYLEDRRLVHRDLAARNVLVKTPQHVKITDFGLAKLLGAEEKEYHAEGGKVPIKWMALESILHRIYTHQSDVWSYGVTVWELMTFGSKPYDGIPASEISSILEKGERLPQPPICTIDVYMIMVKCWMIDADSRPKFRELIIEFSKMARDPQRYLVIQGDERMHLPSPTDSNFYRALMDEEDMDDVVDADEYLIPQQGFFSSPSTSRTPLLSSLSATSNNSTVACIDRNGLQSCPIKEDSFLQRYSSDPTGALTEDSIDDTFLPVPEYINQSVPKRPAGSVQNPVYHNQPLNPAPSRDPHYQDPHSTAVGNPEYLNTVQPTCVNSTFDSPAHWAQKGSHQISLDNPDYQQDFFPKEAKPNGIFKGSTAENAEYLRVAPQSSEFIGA
Assay: compounds binding epidermal growth factor receptor – biochemical, small-molecule microarray, 635 nm fluorescence, primary screen (AID 1104);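 note: score merges 667 nm emission intensity with spot signal to noise over triplicate slides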
Conditions: EGFR binding, higher = more signal
Each entry gets criterion not met if its composite z-score stays under 0.8, and criterion met if its composite z-score is 0.8 or above.

Exam item: Check if composite z-score >= 0.8 (inclusive). Item: `C=CCNC(=O)[C@@H]1[C@H]2C(=O)O[C@H](c3ccccc3)[C@H](c3ccccc3)N2[C@H](c2ccccc2OCCO)[C@@]12C(=O)Nc1ccc(C#CCCO)cc12`
Marked response: criterion met

Exam item: Test whether the molecule `CCOC(=O)C[C@H]1[C@H](OC(=O)c2ccc(C(=O)c3ccccc3)cc2)[C@@H](NC(=O)c2ccc3ccccc3n2)c2cc(OCCCO)ccc2N1C(=O)Cc1ccc(OC)cc1` records composite z-score of 0.8 or higher.
Marked response: criterion not met

Exam item: Reported composite z-score reaches at least 0.8 for `COCCOC(=O)N1C(=O)[C@@]2(c3cc(C#CCC(C(=O)OC)C(=O)OC)ccc31)[C@H](c1ccc(OCCO)cc1)N1[C@H](c3ccccc3)[C@H](c3ccccc3)OC(=O)[C@H]1[C@@H]2C(=O)N1CCc2cc(OC)c(OC)cc2C1` ?
Marked response: criterion not met

Exam item: Is it the case that `CCOC(=O)C1=CC[C@@H](c2ccccc2)N(S(=O)(=O)c2ccc(C)cc2)[C@H]1c1ccccc1` has composite z-score reaching or exceeding 0.8?
Marked response: criterion not met

Exam item: Could you please find out whether CCCCN1CC=CC23O[C@@H]4/C=C\CCCOC(=O)C4[C@H]2C(=O)N(CCO)[C@@H]3C1=O (stereo partly specified) has composite z-score that meets 0.8 or exceeds it?
Marked response: criterion not met
